Test: Plasma and brain concentrations of drugs at the end of the audiogenic seizure experiment (LC-MS)
Assay type: in vivo, mouse
Conditions: DBA/2J, mouse, plasma, oral, analyte LEV; COMPOUND 1 10 mg/kg 3 h + LEV 3 mg/kg 1 h before stimulus, oral gavage; mean ± SEM; read-out: Plasma concentration total
MEASURED_PARAMETER: concentration at 1 h (ng/mL)
Answer format: numeric, ng/mL implied, no suffix.

// query Need concentration at 1 h, item CC[C@@H](C(N)=O)N1CCCC1=O [LEV, (S)-2-(2-oxopyrrolidin-1-yl)butanamide]
// result 1250

----------
Assay: Plasma and brain concentrations of drugs at the end of the audiogenic seizure experiment (LC-MS)
Type: in vivo, mouse
Settings: DBA/2J, mouse, brain, oral, 3 mg/kg, analyte LEV; vehicle 3 h + LEV 3 mg/kg 1 h before stimulus, oral gavage; mean ± SEM; read-out: Brain concentration total
MEASURED_PARAMETER: concentration at 1 h (ng/g)
Answer format: numeric, ng/g implied, no suffix.

// query Need concentration at 1 h, item CC[C@@H](C(N)=O)N1CCCC1=O [LEV, (S)-2-(2-oxopyrrolidin-1-yl)butanamide]
// result 677

----------
Assay: Plasma and brain concentrations of drugs at the end of the audiogenic seizure experiment (LC-MS)
Assay type: in vivo, mouse
Conditions: DBA/2J, mouse, plasma, oral, analyte LTG; COMPOUND 1 10 mg/kg 3 h + LTG 10 mg/kg 1 h before stimulus, oral gavage; mean ± SEM; read-out: Plasma concentration total
Method: Briefly, blood was sampled from the vena cava caudalis with a syringe pre-filled with EDTA (ethylenediamine tetraacetic acid) as anticoagulant and centrifuged to yield plasma (for 10 minutes, at 4° C. and 5000 rpm (rounds per minute)). Brain was sampled and homogenized into one volume of cold phosphate buffer (pH 7.4). Following extraction with methanol, concentrations of the compound in plasma and brain were determined using liquid chromatography coupled to mass spectrometry. […]
MEASURED_PARAMETER: concentration at 1 h (ng/mL)
Answer format: numeric, ng/mL implied, no suffix.

// query Need concentration at 1 h, item Nc1nnc(-c2cccc(Cl)c2Cl)c(N)n1
// result 859

----------
Experiment: Plasma and brain concentrations of drugs at the end of the audiogenic seizure experiment (LC-MS)
Type: in vivo, mouse
Conditions: DBA/2J, mouse, plasma, oral, 30 mg/kg, analyte LTG; vehicle 3 h + LTG 30 mg/kg 1 h before stimulus, oral gavage; mean ± SEM; read-out: Plasma concentration total
MEASURED_PARAMETER: concentration at 1 h (ng/mL)
Answer format: numeric, ng/mL implied, no suffix.

// query Need concentration at 1 h, item Nc1nnc(-c2cccc(Cl)c2Cl)c(N)n1
// result 3560

----------
Experiment: Plasma and brain concentrations of drugs at the end of the audiogenic seizure experiment (LC-MS)
Type: in vivo, mouse
Conditions: DBA/2J, mouse, brain, oral, analyte LTG; COMPOUND 1 30 mg/kg 3 h + LTG 10 mg/kg 1 h before stimulus, oral gavage; mean ± SEM; read-out: Brain concentration total
MEASURED_PARAMETER: concentration at 1 h

// query Need concentration at 1 h, item Nc1nnc(-c2cccc(Cl)c2Cl)c(N)n1 [LTG]
// result 3660 ng/g

----------
Test: Plasma and brain concentrations of drugs at the end of the audiogenic seizure experiment (LC-MS)
Type: in vivo, mouse
Details: DBA/2J, mouse, plasma, oral, 3 mg/kg, analyte LTG; vehicle 3 h + LTG 3 mg/kg 1 h before stimulus, oral gavage; mean ± SEM; read-out: Plasma concentration total
MEASURED_PARAMETER: concentration at 1 h (ng/mL)
Answer format: numeric, ng/mL implied, no suffix.

// query Need concentration at 1 h, item Nc1nnc(-c2cccc(Cl)c2Cl)c(N)n1 [LTG]
// result 293
